Quick reference: viability, T/C of the listed items.
system: OVCAR-5 complex spheroids with HUVEC/MSC, viability, % test/control; test: Anticancer human tumor OVCAR-5 cell line growth inhibition [AhR]; settings: second compound 3.16 µM; first compound 0.00949 µM; active compounds read low;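 further: spheroids exposed to compounds for 7 days; 100% = DMSO vehicle control wells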
Write the value in % as a bare number.

Please review the following examples before continuing.
[[record]]
compound = "CCN(c1cc(-c2ccc(CN3CCOCC3)cc2)cc(C(=O)NCc2c(C)cc(C)[nH]c2=O)c1C)C1CCOCC1 + Cc1cncc(-c2nc(NCCc3c[nH]c4ccccc34)c3ncn(C(C)C)c3n2)c1"
tested_system = "OVCAR-5 complex spheroids with HUVEC/MSC, viability, % test/control"
endpoint = "viability, T/C"
measure_unit = "%"
value_reported = 78.5

[[record]]
compound = "O=C(C=Cn1cnc(-c2cc(C(F)(F)F)cc(C(F)(F)F)c2)n1)NNc1cnccn1 + CC(CO)NC(=O)c1cc(-c2ccc(Cl)cc2)nn(-c2cnn(C)c2)c1=O"
tested_system = "OVCAR-5 complex spheroids with HUVEC/MSC, viability, % test/control"
endpoint = "viability, T/C"
measure_unit = "%"
value_reported = 101

[[record]]
compound = "CCN(c1cc(-c2ccc(CN3CCOCC3)cc2)cc(C(=O)NCc2c(C)cc(C)[nH]c2=O)c1C)C1CCOCC1 + Cc1ccccc1N=Nc1ccc(NC(=O)c2ccnn2C)c(C)c1"
tested_system = "OVCAR-5 complex spheroids with HUVEC/MSC, viability, % test/control"
endpoint = "viability, T/C"
measure_unit = "%"
value_reported = 115


### Prompt # get_value(readout='viability, T/C', item= O=C(C=Cn1cnc(-c2cc(C(F)(F)F)cc(C(F)(F)F)c2)n1)NNc1cnccn1 + Cc1cncc(-c2nc(NCCc3c[nH]c4ccccc34)c3ncn(C(C)C)c3n2)c1 )
### Response 98.1
